Numbers sourced from the supplement of paper PMC7125110.

B1: glmS ribozyme (parent)
chain: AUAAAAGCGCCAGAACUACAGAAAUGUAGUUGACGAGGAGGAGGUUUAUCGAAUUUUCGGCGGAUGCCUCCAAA

# Variants of: B1
# method: self-cleavage kobs at 10000 uM GlcN6P; higher = faster cleavage; RNA array
# condition: with glucosamine-6-phosphate
This sample holds only a part of the variants without activity.
fulfilled means recorded self-cleavage kobs at 10000 uM GlcN6P is 0.0009 s⁻¹ or above; not fulfilled means it is below 0.0009 s⁻¹.

Ask | Check if self-cleavage kobs at 10000 uM GlcN6P >= 0.0009 s⁻¹ (inclusive). Item: G32C G35U
Reply | not fulfilled

Ask | Assess whether reported self-cleavage kobs at 10000 uM GlcN6P for A12G U55A sits at 0.0009 s⁻¹ or higher.
Reply | fulfilled

Ask | Reported self-cleavage kobs at 10000 uM GlcN6P reaches at least 0.0009 s⁻¹ for A36U A42U ?
Reply | not fulfilled

Ask | Please indicate if the recorded self-cleavage kobs at 10000 uM GlcN6P for A39C G66A meets or exceeds 0.0009 s⁻¹.
Reply | fulfilled

Ask | Quick check, self-cleavage kobs at 10000 uM GlcN6P >= 0.0009 s⁻¹? U47G U55G
Reply | fulfilled

Ask | Item C8U U57A U69G with self-cleavage kobs at 10000 uM GlcN6P of 0.0009 s⁻¹ or above?
Reply | not fulfilled

Ask | Test whether the variant U30A G35A G51A G60U records self-cleavage kobs at 10000 uM GlcN6P of 0.0009 s⁻¹ or higher.
Reply | not fulfilled

Ask | self-cleavage kobs at 10000 uM GlcN6P >= 0.0009 s⁻¹ for A42C C61A ?
Reply | not fulfilled
